Sourced from paper PMC5148066

# target under test: Bovine papular stomatitis virus chemokine-binding protein (Bovine papular stomatitis virus (strain V660 named for the sequence analysis))
# procedure text: SPR; BPSV-CBP immobilised on a CM5 chip (~500 RU) by amine coupling; serial dilutions of mouse chemokines in HBS-EP (20 mM HEPES, 150 mM NaCl, 3.4 mM EDTA, 0.005% Polysorbate 20, pH 7.4) run in triplicate, 3 min association, 10 min dissociation; 25°C, Biacore X100; global fit with a 1:1 binding model
Kindly supply the reported pKd values for the records listed here.
One number for each entry, as −log10 of the molar value.

Some solved entries appear below for comparison.
State its pKd for this binder: mouse XCL1 (ligand) VGTEVLEESSCVNLQTQRLPVQKIKTYIIWEGAMRAVIFVTKRGLKICADPEAKWVKAAIKTVDGRASTRKNMAETVPTGAQRSTSTAITLTG 8.85

State its pKd for this binder: mouse CXCL4 (ligand) VTSAGPEESDGDLSCVCVKTISSGIHLKHITSLEVIKAGRHCAVPQLIATLKNGRKICLDRQAPLYKKVIKKILES 8.64

State its pKd for this binder: mouse CXCL2 (ligand) AVVASELRCQCLKTLPRVDFKNIQSLSVTPPGPHCAQTEVIATLKGGQKVCLDPEAPLVQKIIQKILNKGKAN 9.14

Here is another binder to look at.
State its pKd for this binder: mouse CXCL1 (ligand) APIANELRCQCLQTMAGIHLKNIQSLKVLPSGPHCTQTEVIATLKNGREACLDPEAPLVQKIVQKMLKGVPK 8.37
